# target: human CD3 expressed on cells (Jurkat cells, a CD3+ human T-cell line; human PBMC T cells) (human, UniProt P07766 23-207; P04234 22-171)
# Sequence (P07766 23-207 limits assumed, chain 1 of 2): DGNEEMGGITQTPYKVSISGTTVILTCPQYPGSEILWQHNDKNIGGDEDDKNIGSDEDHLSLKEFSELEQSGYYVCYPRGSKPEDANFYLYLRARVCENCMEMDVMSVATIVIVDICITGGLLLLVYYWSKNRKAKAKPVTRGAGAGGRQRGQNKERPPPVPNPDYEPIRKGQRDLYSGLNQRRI
# Sequence (P04234 22-171 limits assumed, chain 2 of 2): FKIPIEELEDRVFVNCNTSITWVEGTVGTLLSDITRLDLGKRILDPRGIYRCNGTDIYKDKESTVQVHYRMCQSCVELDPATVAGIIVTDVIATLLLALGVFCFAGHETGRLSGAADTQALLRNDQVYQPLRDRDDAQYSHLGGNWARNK
# procedure-text: cell-based or functional assay
So I've got a bunch of binders here, and I need their EC50 [M] hPBMC Proliferation values.
// return numeric value only (unit: M, not printed)

In: Requested field: EC50 [M] hPBMC Proliferation. Item: H2M3543N (antibody, mouse IgG2, V domains shown, H2M: mouse IgG2 Fc, human variable regions; divalent) VH: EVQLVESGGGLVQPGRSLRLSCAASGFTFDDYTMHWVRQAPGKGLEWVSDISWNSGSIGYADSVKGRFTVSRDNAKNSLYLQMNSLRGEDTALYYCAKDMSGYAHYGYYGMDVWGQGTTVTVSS VL: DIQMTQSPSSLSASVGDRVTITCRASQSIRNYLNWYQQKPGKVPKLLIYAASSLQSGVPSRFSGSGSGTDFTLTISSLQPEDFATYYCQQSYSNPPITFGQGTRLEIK
Out: 6.12e-12

In: Requested field: EC50 [M] hPBMC Proliferation. Item: H2M2706N (antibody, mouse IgG2, V domains shown, H2M: mouse IgG2 Fc, human variable regions; divalent) VH: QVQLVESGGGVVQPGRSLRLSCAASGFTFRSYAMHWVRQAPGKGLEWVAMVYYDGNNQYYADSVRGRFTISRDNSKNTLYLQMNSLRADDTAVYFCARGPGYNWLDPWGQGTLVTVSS VL: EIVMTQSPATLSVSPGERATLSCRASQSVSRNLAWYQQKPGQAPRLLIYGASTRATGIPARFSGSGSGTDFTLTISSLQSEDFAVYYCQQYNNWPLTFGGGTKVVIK
Out: 3.86e-12

In: Requested field: EC50 [M] hPBMC Proliferation. Item: H2M2711N (antibody, V domains shown, H2M: mouse IgG2 Fc, human variable regions; divalent) VH: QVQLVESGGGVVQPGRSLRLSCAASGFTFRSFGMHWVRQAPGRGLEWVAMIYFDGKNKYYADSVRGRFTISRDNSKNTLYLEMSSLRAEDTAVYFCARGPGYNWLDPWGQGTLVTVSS VL: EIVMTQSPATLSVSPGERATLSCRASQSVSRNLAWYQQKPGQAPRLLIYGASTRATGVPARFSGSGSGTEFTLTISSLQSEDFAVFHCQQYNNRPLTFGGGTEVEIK
Out: 6.48e-10

In: Requested field: EC50 [M] hPBMC Proliferation. Item: H2M2710N (antibody, V domains shown, H2M: mouse IgG2 Fc, human variable regions; divalent) VH: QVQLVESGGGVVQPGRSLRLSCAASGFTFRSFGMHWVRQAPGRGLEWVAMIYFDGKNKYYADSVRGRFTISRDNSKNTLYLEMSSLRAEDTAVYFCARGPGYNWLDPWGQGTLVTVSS VL: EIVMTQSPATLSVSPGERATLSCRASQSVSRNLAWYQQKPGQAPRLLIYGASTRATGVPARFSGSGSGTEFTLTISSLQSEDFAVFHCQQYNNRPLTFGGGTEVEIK
Out: 2.11e-10

In: Requested field: EC50 [M] hPBMC Proliferation. Item: H2M2775N (antibody, mouse IgG2, V domains shown, H2M: mouse IgG2 Fc, human variable regions; divalent) VH: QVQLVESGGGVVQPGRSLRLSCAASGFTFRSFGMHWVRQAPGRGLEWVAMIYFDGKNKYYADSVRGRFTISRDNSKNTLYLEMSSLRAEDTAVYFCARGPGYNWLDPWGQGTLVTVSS VL: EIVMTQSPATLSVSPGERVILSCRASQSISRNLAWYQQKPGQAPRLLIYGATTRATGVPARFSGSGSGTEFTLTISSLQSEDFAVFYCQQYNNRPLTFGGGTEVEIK
Out: 1.09e-09
